Catalogue of Papp readings, one per entry.
- testContext: pampa; 60.0 min; 50.0 µM
Respond with the bare value in ×10⁻⁶ cm/s.

Recorded results for 5 molecules are shown here.
O=C(NCCCO)c1ccc(-c2ncc3cnc(-c4cccc(F)c4)cn23)cc1 = 46
CCN(CC)CCCC(C)Nc1ccnc2cc(Cl)ccc12 (stereo unspecified) = 8
CC(Oc1ccccc1)C(=O)N[C@@H]1C(=O)N2[C@@H]1SC(C)(C)[C@@H]2C(=O)O (stereo partly specified) = 25
CCN(CC)CCNc1ccc2ncn3c4ccc(O)cc4c(=O)c1c23 = 17
CC(C)(C)C(=O)OCOC(=O)C1N2C(=O)CC2S(=O)(=O)C1(C)C (stereo unspecified) = 37

Shift focus to the following entry.
For COc1cc(C(C)C)c(Oc2cnc(NC(CO)CO)nc2N)cc1I , what is its reported Papp?
103

----------
- testContext: pampa; 60.0 min; 50.0 µM
readoutName: Papp (×10⁻⁶ cm/s)
Report as a plain number; the unit ×10⁻⁶ cm/s is understood.

C[C@H](Nc1nc(N[C@H](C)C(F)(F)F)nc(-c2cccc(Cl)n2)n1)C(F)(F)F = 122
CCNC1(C(N)=O)CN(c2nc(C)nc3c(-c4ccc(Cl)cc4)c(-c4ccccc4Cl)nn23)C1 = 8.69
O=C(CCCN1CCC(O)(c2ccc(Cl)cc2)CC1)c1ccc(F)cc1 = 217
CC1(C#N)CCN(c2c(C(=O)N3CCN(S(C)(=O)=O)CC3)cnc3ccc(F)cc23)CC1 = 19

So what's the measured Papp for this one? Cc1cccc(C#Cc2cc(F)cc(C#N)c2)n1
209

Using the record for COc1ccc2c(c[n+](C)c3c4cc5c(cc4ccc23)OCO5)c1OC , report its Papp.
121

Query: Papp; subject: N[C@@H](Cc1ccc(N(CCCl)CCCl)cc1)C(=O)O
131

Which Papp reading was recorded for the molecule O=C(c1ccc(-c2ncc3cnc(-c4cccc(F)c4)cn23)cc1)N1CC(O)C1 ?
27

----------
- testContext: pampa; 60.0 min; 50.0 µM
# Papp per record follows
Report only the number, with the unit ×10⁻⁶ cm/s understood.

O=C(O)C1CCc2cc(C3CCCCC3)c(Cl)cc21 (centres undefined) = 61
Cn1nnnc1Sc1ncnc2scc(-c3cccc4ccccc34)c12 = 265
O=C(C[C@@H]1NCCC[C@H]1O)Cn1cnc2cc(Br)c(Cl)cc2c1=O = 43
COc1cccc2c1C(=O)c1c(O)c3c(c(O)c1C2=O)C[C@@](O)(C(C)=O)C[C@@H]3O[C@H]1C[C@H](N)[C@H](O)[C@H](C)O1 = 8
COc1cc(Cc2cnc(N)nc2N)c(C(C)C)cc1OC = 48

Value lookup for Papp; key = COc1cc2nc(N3CCC(N4CCCCC4)CC3)nc(NC3CCCCCC3)c2cc1OC
116

// lookup Papp for C/C(=C\c1csc(C)n1)[C@@H]1C[C@@H]2O[C@]2(C)CCC[C@H](C)[C@H](O)[C@@H](C)C(=O)C(C)(C)[C@@H](O)CC(=O)N1
1.7

What measured Papp goes with CCCN(CCC)CCc1cccc2c1CC(=O)N2 ?
34

----------
- testContext: pampa; 60.0 min; 50.0 µM
readoutName: Papp

CC(NC(CCc1ccccc1)C(=O)O)C(=O)N1C(=O)N(C)CC1C(=O)O (stereo not drawn) = < 1 ×10⁻⁶ cm/s
C/C(=C(\CCOC(=O)C(C)C)SS/C(CCOC(=O)C(C)C)=C(/C)N(C=O)Cc1cnc(C)nc1N)N(C=O)Cc1cnc(C)nc1N = 3 ×10⁻⁶ cm/s
CC(C)CN(CC(=O)N(CCCN1CCCC1=O)CC(N)=O)C(=O)CNCCc1ccccc1F = < 1 ×10⁻⁶ cm/s
CO[C@@]1(NC(=O)C(C(=O)O)c2ccc(O)cc2)C(=O)N2C(C(=O)O)=C(CSc3nnnn3C)CO[C@@H]21 (stereo partly drawn) = < 1 ×10⁻⁶ cm/s
CC1(C)S[C@@H]2[C@H](NC(=O)COc3ccccc3)C(=O)N2[C@H]1C(=O)O = 6 ×10⁻⁶ cm/s
CC1=C(C(=O)O)N2C(=O)[C@@H](N)[C@H]2SC1 = < 1 ×10⁻⁶ cm/s
O=C(O)[C@H]1O[C@@H](Oc2cc3oc(-c4ccc(O)cc4)cc(=O)c3c(O)c2O)[C@H](O)[C@@H](O)[C@@H]1O = < 1 ×10⁻⁶ cm/s
CCN1CCN(C(=O)N[C@@H](C(=O)N[C@]2(OC)C(=O)N3C(C(=O)O)=C(CSc4nnnn4C)CS[C@@H]32)[C@H](C)O)C(=O)C1=O = < 1 ×10⁻⁶ cm/s
O=C1NCN(c2ccccc2)C12CCN(CCCC(c1ccc(F)cc1)c1ccc(F)cc1)CC2 = 42 ×10⁻⁶ cm/s
Cc1ccnc2c1NC(=O)c1cccnc1N2C1CC1 = 26 ×10⁻⁶ cm/s

Requested field: Papp. Item: COCCn1cnc2c(c(-c3ccccc3)c(-c3ccccc3)n2Cc2ccc(OC)cc2)c1=N
231 ×10⁻⁶ cm/s

Requested field: Papp. Item: O=C(Nc1cnc(Cl)nc1)c1ccc(F)c(F)c1
61 ×10⁻⁶ cm/s

Consider the compound Cc1ccccc1N(C)C1CN([S+](=O)([O-])c2cccc(C(F)(F)F)c2)C1 and give its measured Papp.
> 300 ×10⁻⁶ cm/s

Value lookup for Papp; key = COc1ccc(CCNC(=O)CCc2c(C)c3cc4c(C)coc4cc3oc2=O)cc1
279 ×10⁻⁶ cm/s

Requested read-out: Papp. Entry: Nc1ncnc2c1ncn2CCNCCCCCO
< 1 ×10⁻⁶ cm/s

Fill in: Papp of CC#CCC(C)[C@H](O)/C=C/[C@@H]1[C@H]2c3cccc(CCCC(=O)O)c3O[C@H]2C[C@H]1O (stereo partly drawn) is ___
< 1 ×10⁻⁶ cm/s

GET /values?readout=Papp&item= O=C(Nc1cccnc1)c1cccs1
10 ×10⁻⁶ cm/s

Entry under review: COC(=O)c1ccccc1O[C@@H]1O[C@H](CO[C@@H]2OC[C@@H](O)[C@H](O)[C@H]2O)[C@@H](O)[C@H](O)[C@H]1O . Reported Papp?
< 1 ×10⁻⁶ cm/s

Quick one: Papp for CO[C@H]1/C=C\C=C(\C)C(=O)NC2=CC(=O)C(NCCN(C)C)=C(C[C@@H](C)C[C@H](OC)[C@H](O)[C@@H](C)/C=C(/C)[C@@H]1OC(N)=O)C2=O ?
11.9 ×10⁻⁶ cm/s

Would you kindly share the measured Papp for NC(=O)C1=C(O)[C@@]2(O)C(=O)C3=C(O)c4c(O)cccc4C[C@H]3C[C@H]2CC1=O ?
9 ×10⁻⁶ cm/s

Recorded Papp of c1nc(NC2CCCCCC2)c2cc(CNC[C@H]3CCCO3)sc2n1 , please.
105 ×10⁻⁶ cm/s

Query: Papp; subject: Cn1nnnc1SCC1=C(C(=O)O)N2C(=O)[C@H](NC(=O)C(O)c3ccccc3)C2SC1 (stereo partly drawn)
< 1 ×10⁻⁶ cm/s

Would you kindly share the measured Papp for Nc1ncnc2c1ncn2[C@@H]1O[C@H](CSCC[C@H](N)C(=O)O)[C@@H](O)[C@H]1O ?
< 1 ×10⁻⁶ cm/s

So what does the record say about Papp for CO/S(=N\S(=O)(=O)c1ccc(Cl)cc1)c1ccc([N+](=O)[O-])cc1 (stereo not drawn) ?
4 ×10⁻⁶ cm/s

Given the compound NCc1ccccc1CC(=O)N[C@@H]1C(=O)N2C(C(=O)O)=C(CSc3nnnn3CC(=O)O)CS[C@H]12 , what is its reported Papp?
< 1 ×10⁻⁶ cm/s

What value of Papp has been recorded for this entry: CC(C)N(CCCNC(=O)Nc1ccc(C(C)(C)C)cc1)C[C@H]1O[C@@H](n2ccc3c(N)ncnc32)[C@H](O)[C@@H]1O
< 1 ×10⁻⁶ cm/s

Sample N=c1c2c(-c3ccccc3)cn(Cc3ccc(Br)cc3)c2ncn1CCCCO — what was its Papp?
208 ×10⁻⁶ cm/s
